- Tested on: SF-539
- Protocol details: NCI tumour cell line growth inhibition, 48 h
The source made the active and inactive calls. Rule as the data show it: active = GI50 up to about 1.1 µM and inactive = higher.
In this section, each of the compounds is paired with its reported GI50.

Please review the following examples before continuing.
[
  {
    "Compound": "COc1cc2cc(C(=O)N3CC(CCl)c4ccc([N+](C)(C)Cc5ccccc5[N+](=O)[O-])cc43)[nH]c2c(OC)c1OC (centres undefined)",
    "Target or test system": "SF-539",
    "Result type": "GI50",
    "Result": "1.63 µM (inactive)"
  },
  {
    "Compound": "CC(C)C(=O)N1Cc2cc(Cl)cc(Cl)c2OC(=O)c2ccccc21",
    "Target or test system": "SF-539",
    "Result type": "GI50",
    "Result": "18.7 µM (inactive)"
  },
  {
    "Compound": "Cc1c(OCCCOc2ccc3c(=O)cc(-c4ccccc4)oc3c2C)ccc2c(=O)cc(-c3ccccc3)oc12",
    "Target or test system": "SF-539",
    "Result type": "GI50",
    "Result": "> 100 µM (inactive)"
  },
  {
    "Compound": "Cc1ccc(S(=O)(=O)O/N=C2\\CCC\\C2=C/c2ccccc2)cc1",
    "Target or test system": "SF-539",
    "Result type": "GI50",
    "Result": "19.9 µM (inactive)"
  },
  {
    "Compound": "O=C1/C(=C/c2ccc(O)cc2)CCc2ccc([N+](=O)[O-])cc21",
    "Target or test system": "SF-539",
    "Result type": "GI50",
    "Result": "> 90.6 µM (inactive)"
  },
  {
    "Compound": "COc1cc(/C=C(\\C#N)C(N)=C(C#N)C#N)cc(O)c1O",
    "Target or test system": "SF-539",
    "Result type": "GI50",
    "Result": "> 100 µM (inactive)"
  },
  {
    "Compound": "Clc1ccc2oc(CCc3ccccc3)nc2c1",
    "Target or test system": "SF-539",
    "Result type": "GI50",
    "Result": "> 100 µM (inactive)"
  },
  {
    "Compound": "O=C(NC1=C(Cl)C(=O)c2ccccc2C1=O)c1ccc(F)cc1",
    "Target or test system": "SF-539",
    "Result type": "GI50",
    "Result": "4.4 µM (inactive)"
  }
]

Prompt line: Find GI50 (SF-539) for the entry CCCCCCCCCCCCOC(=S)NCCCC
Response line: 21.3 µM (inactive)

Prompt line: Find GI50 (SF-539) for the entry CC(C)(C)c1cc2c(O)c(c1)Cc1cc(C(C)(C)C)cc(c1O)Cc1cc(C(C)(C)C)cc(c1O)Cc1cc(C(C)(C)C)cc(c1O)Cc1cc(C(C)(C)C)cc(c1O)Cc1cc(C(C)(C)C)cc(c1O)Cc1cc(C(C)(C)C)cc(c1O)Cc1cc(C(C)(C)C)cc(c1O)C2
Response line: > 50 µM (inactive)

The reported measurements were obtained from ChEMBL document CHEMBL1201862.
